Test system: IL-5 production
Test: In vitro inhibition of IL-5 production in human blood (phytohemagglutinin-stimulated whole blood, ELISA);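 note: values marked with an asterisk were tested at 10 µM and unmarked values at 1 µM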
Format: cell-based
Conditions: test dose 1×10^−6 M, 48 hours
# % inh. (percentage inhibition of IL-5 production) listing for each entry below
Mention the unit after the number when you answer.

{"compound": "Cc1ccccc1-c1csc(C(c2ccc(Cl)cc2)c2c(Cl)cc(-n3ncc(=O)[nH]c3=O)cc2Cl)n1 (racemic) [Comp 243]", "val": "97%"}
{"compound": "O=c1cnn(-c2cc(Cl)c(C(CSc3ccccn3)c3ccc(Cl)cc3)c(Cl)c2)c(=O)[nH]1 (racemic) [Compound 422]", "val": "87%"}
{"compound": "O=c1cnn(-c2cc(Cl)c(C(c3ccc(Cl)cc3)c3nc(-c4ccccc4)c(Cc4ccccc4)s3)c(Cl)c2)c(=O)[nH]1 (racemic) [Comp 249]", "val": "80%"}
{"compound": "O=c1cnn(-c2ccc(C(SC3CCCCC3)c3ccc(Cl)cc3)c(Cl)c2)c(=O)[nH]1 (stereo not drawn) [Compound 90]", "val": "60%"}
{"compound": "CCOC(=O)C(=O)Nc1cccc(-c2nnc(C(c3ccc(Cl)cc3)c3c(Cl)cc(-n4ncc(=O)[nH]c4=O)cc3Cl)o2)c1.O (racemic) [Compound 219]", "val": "8%"}

Let's switch to this compound now.
Prompt line: GET /values?readout=% inh. (percentage inhibition of IL-5 production)&system=IL-5 production&item= CN1CCC(C(=O)Cc2sc(C(c3ccc(Cl)cc3)c3c(Cl)cc(-n4ncc(=O)[nH]c4=O)cc3Cl)nc2-c2ccccc2)CC1 (racemic) [Comp 283]
Response line: 93%
